# testedTarget: von Willebrand factor (VWF) (Homo sapiens, UniProt P04275 P04275:764-2813)
# protocolNotes: filter; buffer F, 150 mM NaCl, 2 mM CaCl2, 37 C; Bmax 61%
# studyConditions: tags: Haematologic Technologies Inc. (factor VIII free); label: 5'-32P
measure: pKd
Numbers only, as −log10 of the molar value.

I am curious: what pKd value has been reported for 9.14 T10 (ssRNA, 2'-F pyrimidines) RNA: GGGAGGUGGACGAACUGCCCUCAGCUACUUUCAUGUUGCUGACGCACAGACGACUCGCUG ?
7.36
